Molecular target: 3',5'-cyclic-AMP phosphodiesterase 4B (Homo sapiens)
Experiment: Inhibition of human recombinant PDE4B2 expressed in baculoviral system using cAMP as substrate at 10 uM by fluorescence polarization assay relative to control
Quick rule for you: inhibition at 40% or higher means yes, lower means no.

- molecule: "O=C(CO/N=C/c1ccc(OC(F)F)c(OC2CCCC2)c1)N1CCC(O)CC1"
  system.name: "3',5'-cyclic-AMP phosphodiesterase 4B (Homo sapiens)"
  group.label: "no"
- molecule: "OC(CO/N=C/c1ccc(OC(F)F)c(OC2CCCC2)c1)CN1CCOCC1 (stereo not drawn)"
  system.name: "3',5'-cyclic-AMP phosphodiesterase 4B (Homo sapiens)"
  group.label: "yes"
- molecule: "CC1CN(C(=O)CCO/N=C/c2ccc(OC(F)F)c(OC3CCCC3)c2)CC(C)O1 (stereo not drawn)"
  system.name: "3',5'-cyclic-AMP phosphodiesterase 4B (Homo sapiens)"
  group.label: "no"
- molecule: "CC1CN(CC(O)CO/N=C/c2ccc(OC(F)F)c(OC3CCCC3)c2)CC(C)O1 (stereo not drawn)"
  system.name: "3',5'-cyclic-AMP phosphodiesterase 4B (Homo sapiens)"
  group.label: "yes"
- molecule: "CC1CN(NCC(O)CO/N=C/c2ccc(OC(F)F)c(OC3CCCC3)c2)CC(C)O1 (stereo not drawn)"
  system.name: "3',5'-cyclic-AMP phosphodiesterase 4B (Homo sapiens)"
  group.label: "yes"

Does the reported inhibition for O=C(CO/N=C/c1ccc(OC(F)F)c(OC2CCCC2)c1)N1CCOCC1 fall at or above the 40% mark?
no

Queued: OC1CCN(CC(O)CO/N=C/c2ccc(OC(F)F)c(OC3CCCC3)c2)CC1 (stereo not drawn)
no

Queued: CC1CN(C(=O)CO/N=C/c2ccc(OC(F)F)c(OC3CCCC3)c2)CC(C)O1 (stereo not drawn)
no

###

Test: Plasma concentration in BALB/c mouse at 10 mg/kg, sc measured at 0.67 hrs by LC-MS/MS analysis
Format: ADME, organism-based
experimental.endpoint: concentration at 0.67 h
Show the value, then the unit it is measured in.

So what does the record say about concentration at 0.67 h for CC1CN(C(=O)CO/N=C/c2ccc(OC(F)F)c(OC3CCCC3)c2)CC(C)O1 (configuration not stated) ?
1090 ng/mL

Queued: COc1ccc(/C=N/OCC(=O)N2CC(C)OC(C)C2)cc1OC1CCCC1 (configuration not stated)
343 ng/mL

###

Reported Activity values are given for each entry in this list.
Assay: Cytotoxicity against human HTLA-230 cells at 100 uM after 24 hrs by lactate dehydrogenase release assay (reference value: 0.67 +/- 0.24%)
Assay type: cell-based
Conditions: htla-230, 24 h
Show the value, then the unit it is measured in.

- compound: "OC1CCN(CC(O)CO/N=C/c2ccc(OC(F)F)c(OC3CCCC3)c2)CC1 (centres undefined)"
  experimental.endpoint: "Activity"
  observed.measurement: "31.37%"

So what does the record say about Activity for CC1CN(NCC(O)CO/N=C/c2ccc(OC(F)F)c(OC3CCCC3)c2)CC(C)O1 (centres undefined) ?
1.54%

Queued: OC(CO/N=C/c1ccc(OC(F)F)c(OC2CCCC2)c1)CN1CCOCC1 (centres undefined)
0.21%

Queued: CC1CN(C(=O)CCO/N=C/c2ccc(OC(F)F)c(OC3CCCC3)c2)CC(C)O1 (centres undefined)
0.01%

Queued: CC1CN(C(=O)CO/N=C/c2ccc(OC(F)F)c(OC3CCCC3)c2)CC(C)O1 (centres undefined)
0.01%

Queued: O=C(CO/N=C/c1ccc(OC(F)F)c(OC2CCCC2)c1)N1CCC(O)CC1
4.62%

Queued: COc1ccc(/C=N/OCC(=O)N2CC(C)OC(C)C2)cc1OC1CCCC1 (centres undefined)
0.14%

Queued: O=C(CO/N=C/c1ccc(OC(F)F)c(OC2CCCC2)c1)N1CCOCC1
2.06%

Queued: CC1CN(CC(O)CO/N=C/c2ccc(OC(F)F)c(OC3CCCC3)c2)CC(C)O1 (centres undefined)
8.83%

###

Target: 3',5'-cyclic-AMP phosphodiesterase 4D (Homo sapiens)
Sequence (Q08499 whole entry): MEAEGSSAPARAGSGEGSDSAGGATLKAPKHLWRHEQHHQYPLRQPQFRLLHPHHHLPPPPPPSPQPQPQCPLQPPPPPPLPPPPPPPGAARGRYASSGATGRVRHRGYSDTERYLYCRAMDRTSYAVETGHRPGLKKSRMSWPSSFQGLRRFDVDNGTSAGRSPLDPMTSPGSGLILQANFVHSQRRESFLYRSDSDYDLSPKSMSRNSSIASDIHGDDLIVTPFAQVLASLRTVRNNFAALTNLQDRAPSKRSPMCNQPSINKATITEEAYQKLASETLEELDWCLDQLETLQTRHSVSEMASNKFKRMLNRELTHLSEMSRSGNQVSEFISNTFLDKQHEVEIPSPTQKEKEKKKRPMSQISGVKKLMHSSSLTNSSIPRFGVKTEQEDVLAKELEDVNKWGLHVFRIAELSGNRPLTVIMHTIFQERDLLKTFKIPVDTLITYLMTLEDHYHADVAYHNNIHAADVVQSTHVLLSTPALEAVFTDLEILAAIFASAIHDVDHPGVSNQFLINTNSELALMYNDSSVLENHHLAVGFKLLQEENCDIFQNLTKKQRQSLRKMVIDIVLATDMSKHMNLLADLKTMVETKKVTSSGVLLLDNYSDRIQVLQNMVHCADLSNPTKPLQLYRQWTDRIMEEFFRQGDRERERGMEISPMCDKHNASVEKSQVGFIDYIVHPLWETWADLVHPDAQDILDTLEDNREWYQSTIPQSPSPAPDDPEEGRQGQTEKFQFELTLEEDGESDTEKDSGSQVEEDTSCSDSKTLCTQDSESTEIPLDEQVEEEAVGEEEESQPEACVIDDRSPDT
Assay: Inhibition of human recombinant PDE4D3 expressed in baculoviral system using cAMP as substrate at 10 uM by fluorescence polarization assay relative to control
Quick rule for you: inhibition at 70% or higher means 1, lower means 0.

Please review the following examples before continuing.
- molecule: "O=C(CO/N=C/c1ccc(OC(F)F)c(OC2CCCC2)c1)N1CCOCC1"
  group.label: 0
- molecule: "OC(CO/N=C/c1ccc(OC(F)F)c(OC2CCCC2)c1)CN1CCOCC1 (stereo not drawn)"
  group.label: 1
- molecule: "CC1CN(CC(O)CO/N=C/c2ccc(OC(F)F)c(OC3CCCC3)c2)CC(C)O1 (stereo not drawn)"
  group.label: 1
- molecule: "CC1CN(C(=O)CCO/N=C/c2ccc(OC(F)F)c(OC3CCCC3)c2)CC(C)O1 (stereo not drawn)"
  group.label: 0
- molecule: "CC1CN(NCC(O)CO/N=C/c2ccc(OC(F)F)c(OC3CCCC3)c2)CC(C)O1 (stereo not drawn)"
  group.label: 1

Does the reported inhibition for O=C(CO/N=C/c1ccc(OC(F)F)c(OC2CCCC2)c1)N1CCC(O)CC1 fall at or above the 70% mark?
0

Queued: CC1CN(C(=O)CO/N=C/c2ccc(OC(F)F)c(OC3CCCC3)c2)CC(C)O1 (stereo not drawn)
1

Queued: OC1CCN(CC(O)CO/N=C/c2ccc(OC(F)F)c(OC3CCCC3)c2)CC1 (stereo not drawn)
0

###

Reported log10 IC50 values are given for each entry in this list.
Molecular target: 3',5'-cyclic-AMP phosphodiesterase 4D (Homo sapiens)
Experiment: Inhibition of human recombinant PDE4D3 expressed in baculoviral system using cAMP as substrate by fluorescence polarization assay
A value of 2 here means IC50 of 100 in nM, since values are log10.

For orientation, consider the following solved cases.
- compound: "OC(CO/N=C/c1ccc(OC(F)F)c(OC2CCCC2)c1)CN1CCOCC1 (stereo not drawn)"
  log10 IC50: 3.17
- compound: "CC1CN(NCC(O)CO/N=C/c2ccc(OC(F)F)c(OC3CCCC3)c2)CC(C)O1 (stereo not drawn)"
  log10 IC50: 2.28
- compound: "O=C(CO/N=C/c1ccc(OC(F)F)c(OC2CCCC2)c1)N1CCC(O)CC1"
  log10 IC50: 3.42
- compound: "CC1CN(CC(O)CO/N=C/c2ccc(OC(F)F)c(OC3CCCC3)c2)CC(C)O1 (stereo not drawn)"
  log10 IC50: 2.28
- compound: "CC1CN(C(=O)CCO/N=C/c2ccc(OC(F)F)c(OC3CCCC3)c2)CC(C)O1 (stereo not drawn)"
  log10 IC50: 2.67

Field: log10 IC50 (3',5'-cyclic-AMP phosphodiesterase 4D (Homo sapiens)). Entry: CC1CN(C(=O)CO/N=C/c2ccc(OC(F)F)c(OC3CCCC3)c2)CC(C)O1 (stereo not drawn)
3.68

Queued: O=C(CO/N=C/c1ccc(OC(F)F)c(OC2CCCC2)c1)N1CCOCC1
3.05

Queued: OC1CCN(CC(O)CO/N=C/c2ccc(OC(F)F)c(OC3CCCC3)c2)CC1 (stereo not drawn)
3.40

###

Reported concentration at 0.17 h values are given for each entry in this list.
Experiment: Plasma concentration in BALB/c mouse at 10 mg/kg, sc measured at 0.17 hrs by LC-MS/MS analysis
Format: ADME, organism-based
Number in ng/mL, nothing else.

- compound: "COc1ccc(/C=N/OCC(=O)N2CC(C)OC(C)C2)cc1OC1CCCC1 (configuration not stated)"
  experimental.endpoint: "concentration at 0.17 h"
  u: "ng/mL"
  observed.measurement: 4410

So what does the record say about concentration at 0.17 h for CC1CN(C(=O)CO/N=C/c2ccc(OC(F)F)c(OC3CCCC3)c2)CC(C)O1 (configuration not stated) ?
2160

###

Test: Plasma concentration in BALB/c mouse at 10 mg/kg, sc measured at 0.33 hrs by LC-MS/MS analysis
Type: ADME, organism-based
experimental.endpoint: concentration at 0.33 h (ng/mL)
Number in ng/mL, nothing else.

- compound: "COc1ccc(/C=N/OCC(=O)N2CC(C)OC(C)C2)cc1OC1CCCC1 (configuration not stated)"
  observed.measurement: 1310

Continue with the compound presented below.
So what does the record say about concentration at 0.33 h for CC1CN(C(=O)CO/N=C/c2ccc(OC(F)F)c(OC3CCCC3)c2)CC(C)O1 (configuration not stated) ?
1740

###

Test: Plasma concentration in BALB/c mouse at 10 mg/kg, sc measured at 1 hr by LC-MS/MS analysis
Type: ADME, organism-based
experimental.endpoint: concentration at 1 h (µg/mL)
Number in µg/mL, nothing else.

- molecule: "CC1CN(C(=O)CO/N=C/c2ccc(OC(F)F)c(OC3CCCC3)c2)CC(C)O1 (configuration not stated)"
  experimental.endpoint: "concentration at 1 h"
  u: "µg/mL"
  observed.measurement: 0.657

So what does the record say about concentration at 1 h for COc1ccc(/C=N/OCC(=O)N2CC(C)OC(C)C2)cc1OC1CCCC1 (configuration not stated) ?
0.0328
